This collection of values is drawn from patent EP4711366A1.

- TEST DESCRIPTION: Solid-state stability study of polymorphs
- Assay type: physicochemical
- EXPERIMENTAL CONDITIONS: 40 °C/75% RH, 7 days (accelerated)
QUANTITY: Purity (%)

The compound identified as Cc1cc(Nc2ncc3c(=O)n4n(c3n2)-c2cccc(n2)[C@](C)(O)CC/C=C\C4)ccc1OC1CCN(C)CC1 [Crystal form D of compound IE] registered its Purity (%) at 97.87

The compound identified as Cc1cc(Nc2ncc3c(=O)n4n(c3n2)-c2cccc(n2)[C@](C)(O)CC/C=C\C4)ccc1OC1CCN(C)CC1 [Crystal form A of compound IE] registered its Purity (%) at 98.11

The compound identified as Cc1cc(Nc2ncc3c(=O)n4n(c3n2)-c2cccc(n2)[C@](C)(O)CC/C=C\C4)ccc1OC1CCN(C)CC1 [Crystal form B of compound IE] registered its Purity (%) at 98.25

The compound identified as Cc1cc(Nc2ncc3c(=O)n4n(c3n2)-c2cccc(n2)[C@](C)(O)CC/C=C\C4)ccc1OC1CCN(C)CC1 [Crystal form C of compound IE] registered its Purity (%) at 98.73
